Consider the following compounds; for each one, report its Drying loss.
Test: Drying loss (water content of crystal by thermal analysis, TG/DTA)
Format: physicochemical
Conditions: water content in the crystals as loss on drying of the thermal analysis
Residues, ends and D or L forms follow the SMILES beside them.
Respond with a number, then the unit of measure.

Exercise: Data request, read-out Drying loss, for C[C@H](N)C(=O)N[C@@H](CCC(N)=O)C(=O)O [Example 10, L-alanyl-L-glutamine nonhydrate] (H-Ala-Gln-OH)
Key: 1.9%

Exercise: Repeat with C[C@H](N)C(=O)N[C@@H](CCC(N)=O)C(=O)O [Patent No. 4931801 (nonhydrate), L-alanyl-L-glutamine nonhydrate, reference compound] (H-Ala-Gln-OH)
Key: 0.2%

Exercise: Repeat with C[C@H](N)C(=O)N[C@@H](CCC(N)=O)C(=O)O [Example 12, L-alanyl-L-glutamine nonhydrate] (H-Ala-Gln-OH)
Key: 0.3%

Exercise: Repeat with C[C@H](N)C(=O)N[C@@H](CCC(N)=O)C(=O)O [Example 11, L-alanyl-L-glutamine nonhydrate] (H-Ala-Gln-OH)
Key: 1.9%
